target: human VEGFR-2 (Val789-Val1356) (Homo sapiens); construct: human VEGFR-2 (Val789-Val1356); GST (N); purchased Cell Signaling Technology; host or cells: baculovirus expression system; assay: KDR kinase assay (HTScan VEGFR-2 kit, DELFIA); format: biochemical; settings: compound at 1 μM; read-out: KDR 1 μM, % of inhibition relative to control
Sequence (P35968 789-1356): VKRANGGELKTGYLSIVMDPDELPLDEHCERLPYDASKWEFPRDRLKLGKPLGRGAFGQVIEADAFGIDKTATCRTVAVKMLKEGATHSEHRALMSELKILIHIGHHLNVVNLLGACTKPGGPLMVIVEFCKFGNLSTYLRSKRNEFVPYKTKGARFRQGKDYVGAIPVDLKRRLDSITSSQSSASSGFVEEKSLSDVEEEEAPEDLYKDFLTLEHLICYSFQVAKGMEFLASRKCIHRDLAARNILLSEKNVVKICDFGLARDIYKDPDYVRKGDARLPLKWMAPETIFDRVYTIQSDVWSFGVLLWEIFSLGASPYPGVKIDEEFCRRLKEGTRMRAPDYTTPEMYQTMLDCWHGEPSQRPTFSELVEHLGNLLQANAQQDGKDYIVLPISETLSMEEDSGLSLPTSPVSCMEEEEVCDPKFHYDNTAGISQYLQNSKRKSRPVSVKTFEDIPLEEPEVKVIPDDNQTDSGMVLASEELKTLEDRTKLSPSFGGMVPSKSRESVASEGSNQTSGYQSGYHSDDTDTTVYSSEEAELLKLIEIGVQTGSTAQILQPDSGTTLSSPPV
Quantity kind: inhibition at 1 µM (%)

Worked cases, answers included:
{"Smiles text": "O=C1Nc2c(Cl)cccc2/C1=C/c1ccc2cccccc1-2", "inhibition at 1 µM, %": 13.6}
{"Smiles text": "Cc1cc(C=C2C(=O)Nc3cc(C(F)(F)F)ccc32)c2ccccc(OCCCN(C)C)c1-2", "inhibition at 1 µM, %": 52.4}
{"Smiles text": "O=C1Nc2cc(Br)ccc2/C1=C/c1ccc2cccccc1-2", "inhibition at 1 µM, %": 48.2}
{"Smiles text": "Nc1cc2cccccc-2c1C=C1C(=O)Nc2ccc(F)cc21", "inhibition at 1 µM, %": 47.8}
{"Smiles text": "Cc1cc(C=C2C(=O)Nc3ccc(S(=O)(=O)NCCCN4CCN(C)CC4)cc32)c2cccccc1-2", "inhibition at 1 µM, %": 18.5}

A = Cc1cc(C=C2C(=O)Nc3ccccc32)c2cccccc1-2
B = Cc1cc(C=C2C(=O)Nc3c(F)cccc32)c2ccccc(OCCCN(C)C)c1-2
Prompt: Which has the smaller recorded inhibition at 1 µM, A or B ? Indicate which entry you chose by stating its label.
Completion: A
(A: 27.6%, B: 73.9%)

P = O=C1Nc2ccc(F)cc2/C1=C/c1cc(Cl)c2cccccc1-2
Q = Cc1ccc2c(c1)/C(=C/c1ccc3cccccc1-3)C(=O)N2
Prompt: Field: entry with larger inhibition at 1 µM (options P / Q ). State your choice using its label.
Completion: P

----------
Target: human FLT-3 (Arg571-Ser993) (Homo sapiens, UniProt P36888)
Construct: human FLT-3 (Arg571-Ser993); GST (N); purchased Cell Signaling Technology; host or cells: baculovirus expression system
Sequence (P36888 571-993): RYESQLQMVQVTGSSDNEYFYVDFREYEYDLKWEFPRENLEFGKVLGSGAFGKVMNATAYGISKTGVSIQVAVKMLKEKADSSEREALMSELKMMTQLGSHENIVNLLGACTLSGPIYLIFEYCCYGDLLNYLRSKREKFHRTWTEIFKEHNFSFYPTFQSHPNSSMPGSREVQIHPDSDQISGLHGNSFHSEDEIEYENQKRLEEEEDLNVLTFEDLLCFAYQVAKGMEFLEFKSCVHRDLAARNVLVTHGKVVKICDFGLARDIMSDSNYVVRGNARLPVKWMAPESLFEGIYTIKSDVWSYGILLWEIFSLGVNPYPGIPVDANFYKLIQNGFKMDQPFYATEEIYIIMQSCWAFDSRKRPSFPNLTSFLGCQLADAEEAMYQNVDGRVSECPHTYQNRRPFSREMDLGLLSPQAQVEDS
Assay: FLT-3 kinase assay (HTScan kit, DELFIA)
Format: biochemical
Settings: compound at 0.1 μM; read-out: FLT-3 0.1 μM, % of inhibition relative to control
Quantity kind: inhibition at 0.1 µM (%)

Example results:
{"Molecule": "CCOC(=O)N1CCC(Nc2ccc3c(c2)NC(=O)/C3=C/c2cc(C)c3c(OCCCN(C)C)ccccc2-3)CC1 [Compound 97]", "Observed value": 19.1}
{"Molecule": "Nc1cc2cccccc-2c1C=C1C(=O)Nc2ccc(F)cc21 [Compound 64]", "Observed value": 68.3}
{"Molecule": "Cc1cc(/C=C2/C(=O)N(Cc3ccc(C#N)cc3)c3ccccc32)c2c(C)ccc(C(C)C)cc1-2 [Compound 74]", "Observed value": 45.8}
{"Molecule": "O=C1Nc2cc(Br)ccc2/C1=C\\c1ccc2cccccc1-2 [Compound 28]", "Observed value": 1.9}
{"Molecule": "Cc1cc(C=C2C(=O)Nc3ccc(F)cc32)c2ccccc(OCCCN3CCOCC3)c1-2 (mixture of isomers) [Compound 87]", "Observed value": 56.9}

1 = Cc1cc(C=C2C(=O)Nc3cc(C(F)(F)F)ccc32)c2ccccc(OCCCN(C)C)c1-2 [Compound 94]
2 = O=C1Nc2ccc(Br)cc2/C1=C\c1ccc2cccccc1-2 [Compound 7]
Prompt: Of the two listed items, 1 and 2 , which carries the larger inhibition at 0.1 µM figure? Selection: enter the item's label.
Completion: 2

I = O=C1Nc2ccc(F)cc2/C1=C\c1ccc2cccccc1-2 [Compound 25]
II = Cc1[nH]c(/C=C2\C(=O)Nc3ccc(F)cc32)c2ccc(=O)ccc12 [Compound 63]
Prompt: Which is greater in inhibition at 0.1 µM, the first item I or the second item II ? Bench note: the answer is the label of the chosen record.
Completion: II
(II: 50.5%, I: 26.2%)
